Tested on: BRSK2
CONDITION DESCRIPTION: concentration: 1 μM, replicates: in singlicate; n = 1;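 note: KINOMEscan kinase panel screen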
# reported %Inh; entries follow
REPORTED METRIC: %Inh (%)

COMPOUND: COC(=O)c1cccc(NC(=O)NC2CCN(c3ccnc(Nc4ccc(F)cc4)n3)C2)c1 (stereo not shown)
TEST TARGET: BRSK2
NUMERIC VALUE: 0
//
COMPOUND: CCn1c(-c2ccccc2)nc2cnccc21
TEST TARGET: BRSK2
NUMERIC VALUE: 1
//
COMPOUND: CC(C)c1ccc(O)cc1Nc1ccnc2ccc(C(F)(F)F)cc12
TEST TARGET: BRSK2
NUMERIC VALUE: 5
//
COMPOUND: COc1ccc(Nc2nccc(-c3ccc(NC(=O)c4cc5cc(F)ccc5[nH]4)cc3)n2)cc1
TEST TARGET: BRSK2
NUMERIC VALUE: 0
//
COMPOUND: Cc1nccc(-c2c(-c3ccc(F)cc3)ncn2CCCN2CCOCC2)n1.Cl
TEST TARGET: BRSK2
NUMERIC VALUE: 17
//
COMPOUND: COc1cccc(CNC(=O)NC2CCN(c3ccnc(Nc4ccc(F)cc4)n3)C2)c1 (stereo not shown)
TEST TARGET: BRSK2
NUMERIC VALUE: 0
//
COMPOUND: COc1ccc(Nc2nccc(N3CCC(NC(=O)C(C)c4ccc(Cl)cc4)C3)n2)cc1 (stereo not shown)
TEST TARGET: BRSK2
NUMERIC VALUE: 0
//
COMPOUND: CS(=O)(=O)CCNCc1nc(-c2ccc3ncnc(Nc4ccc5c(cnn5Cc5ccccc5)c4)c3c2)cs1.Cl.Cl
TEST TARGET: BRSK2
NUMERIC VALUE: 0
//
COMPOUND: CS(=O)(=O)CCNCc1nc(-c2ccc3ncnc(Nc4ccc(OCc5ccccc5)c(Cl)c4)c3c2)cs1.Cl
TEST TARGET: BRSK2
NUMERIC VALUE: 0
//
COMPOUND: Cc1ccc(NC(=O)Nc2ccc(Cl)cc2)cc1-c1ccc(C(=O)Nc2ccncc2)cc1
TEST TARGET: BRSK2
NUMERIC VALUE: 0

###

Test system: DLK
Construct: gene MAP3K12
CONDITION DESCRIPTION: concentration: 1 μM, replicates: in singlicate; n = 1
We label by threshold. Values of %Inh strictly beneath 20% are condition met. Values of 20% and up are condition not met.

COMPOUND: CS(=O)(=O)CCNCc1nc(-c2ccc3ncnc(Nc4ccc5c(cnn5Cc5ccccc5)c4)c3c2)cs1.Cl.Cl
TEST TARGET: DLK
ASSIGNED LABEL: condition not met

COMPOUND: CC(=O)c1cccc(NC(=O)NC2CCN(c3ccnc(Nc4ccc(F)cc4)n3)C2)c1 (stereo not drawn)
TEST TARGET: DLK
ASSIGNED LABEL: condition not met

COMPOUND: FC(F)(F)c1ccccc1-c1cc(-c2c[nH]nc2-c2ccccn2)ccn1
TEST TARGET: DLK
ASSIGNED LABEL: condition not met

COMPOUND: Cc1cccc2c(-c3ccncn3)c(-c3ccc(F)cc3)nn12
TEST TARGET: DLK
ASSIGNED LABEL: condition not met

COMPOUND: CCCCc1nn2ncccc2c1-c1ccnc(NC2CC2)n1
TEST TARGET: DLK
ASSIGNED LABEL: condition not met

COMPOUND: Cc1ccc(NC(=O)c2ccc(Cl)cc2)cc1-c1ccc(C(=O)Nc2ccncc2)cc1
TEST TARGET: DLK
ASSIGNED LABEL: condition met

COMPOUND: CCn1c(-c2c(N)noc2C)nc2cnccc21
TEST TARGET: DLK
ASSIGNED LABEL: condition not met

COMPOUND: Cn1cncc1C(=O)NC1CCN(c2ccnc(Nc3ccc(F)cc3)n2)C1 (stereo not drawn)
TEST TARGET: DLK
ASSIGNED LABEL: condition met

COMPOUND: CCc1ccc(-c2ccc3c(c2)-c2n[nH]cc2S(=O)(=O)N3C)cc1
TEST TARGET: DLK
ASSIGNED LABEL: condition met

COMPOUND: COc1cccc(NC(=O)Nc2ccc(C)c(-c3ccc(C(=O)Nc4ccncc4)cc3)c2)c1
TEST TARGET: DLK
ASSIGNED LABEL: condition met

COMPOUND: CN1c2ccc(-c3ccc(C(N)=O)cc3)cc2-c2[nH]ncc2S1(=O)=O
TEST TARGET: DLK
ASSIGNED LABEL: condition met

COMPOUND: Nc1nccc(-c2c(-c3ccc(F)cc3)ncn2C2CCN(Cc3ccccc3)CC2)n1
TEST TARGET: DLK
ASSIGNED LABEL: condition met

COMPOUND: Cc1nccc(-c2c(-c3ccc(F)cc3)ncn2CCCN2CCOCC2)n1.Cl
TEST TARGET: DLK
ASSIGNED LABEL: condition met

COMPOUND: COC(=O)c1cccc(NC(=O)NC2CCN(c3ccnc(Nc4ccc(OC)cc4)n3)C2)c1 (stereo not drawn)
TEST TARGET: DLK
ASSIGNED LABEL: condition not met

COMPOUND: Cc1c(Cn2c(C)c(C)n3c(=O)cc(N4CCOCC4)nc23)cccc1C(F)(F)F
TEST TARGET: DLK
ASSIGNED LABEL: condition met

COMPOUND: COc1cccc(C2=C(Nc3cc(Cl)c(O)c(Cl)c3)C(=O)NC2=O)c1
TEST TARGET: DLK
ASSIGNED LABEL: condition met

COMPOUND: c1ccc(-c2ccnc3[nH]ccc23)cc1
TEST TARGET: DLK
ASSIGNED LABEL: condition not met

COMPOUND: Nc1ncnc2occ(-c3ccc4c(c3)CCN4C(=O)Cc3cc(F)ccc3F)c12
TEST TARGET: DLK
ASSIGNED LABEL: condition met

COMPOUND: CNc1cc(-c2ccc3c(N)n[nH]c3c2)nc(N)n1
TEST TARGET: DLK
ASSIGNED LABEL: condition not met

COMPOUND: O=C(Nc1n[nH]c2cc(-c3ccsc3)ccc12)C1CC1
TEST TARGET: DLK
ASSIGNED LABEL: condition met

COMPOUND: O=c1cc(N2CCOCC2)nc2n(Cc3cccc(Cl)c3Cl)c3ccccc3n12
TEST TARGET: DLK
ASSIGNED LABEL: condition met

###

Test system: ULK1
CONDITION DESCRIPTION: concentration: 1 μM, replicates: in singlicate; n = 1
REPORTED METRIC: %Inh (%)

MOLECULE: Nc1cccc(-c2ccc3c(N)n[nH]c3c2)n1 [GSK2192730]
NUMERIC VALUE: 5
//
MOLECULE: O=C(Nc1n[nH]c2nc(-c3cccs3)c(Br)cc12)C1CC1 [SB-735297]
NUMERIC VALUE: 0
//
MOLECULE: CS(=O)(=O)CCNCc1nc(-c2ccc3ncnc(Nc4ccc(OCc5ccccc5)c(Cl)c4)c3c2)cs1.Cl [GW582764]
NUMERIC VALUE: 5
//
MOLECULE: Cc1ccccc1-c1cc(-c2c[nH]nc2-c2ccccn2)ccn1 [GW680061]
NUMERIC VALUE: 0
//
MOLECULE: Cc1ccc(NC(=O)Nc2ccc(Cl)cc2)cc1-c1ccc(C(=O)Nc2ccncc2)cc1 [GSK1398472]
NUMERIC VALUE: 8
//
MOLECULE: COC(=O)C(Cc1ccccc1)NC(=O)NC1CCN(c2ccnc(Nc3ccc(F)cc3)n2)C1 (stereo not drawn) [GSK1379714]
NUMERIC VALUE: 0
//
MOLECULE: Cc1ccc(NC(=O)Nc2ccccc2)cc1-c1ccc(C(=O)Nc2ccncc2)cc1 [GSK1398471]
NUMERIC VALUE: 12
//
MOLECULE: COc1ccc(CSc2nnc(-c3ccc4ncsc4c3)o2)cc1C(F)(F)F
NUMERIC VALUE: 0
//
MOLECULE: COc1ccc(-c2coc3ccc(-c4nnc(C)o4)cc23)cc1
NUMERIC VALUE: 0
//
MOLECULE: COc1cccc(NC(=O)Nc2ccc(C)c(-c3ccc(C(=O)Nc4ccncc4)cc3)c2)c1 [GSK1398474]
NUMERIC VALUE: 6
//
MOLECULE: COc1cccc(C2=C(Nc3cc(Cl)c(O)c(Cl)c3)C(=O)NC2=O)c1 [SB-390767]
NUMERIC VALUE: 32
//
MOLECULE: NS(=O)(=O)c1cccc(N/C=C2\C(=O)Nc3ccc(S(=O)(=O)Cc4c(Cl)cccc4Cl)cc32)c1 [GSK398099]
NUMERIC VALUE: 13

###

Test system: RSK4(Kin.Dom.1-N-terminal)
Construct: gene RPS6KA6
CONDITION DESCRIPTION: concentration: 1 μM, replicates: in singlicate; n = 1
# reported %Inh; entries follow

COMPOUND: COC(=O)C(NC(=O)NC1CCN(c2ccnc(Nc3ccc(F)cc3)n2)C1)c1ccccc1 (stereo not drawn)
%Inh [%]: 0

COMPOUND: CNCc1ccc2nc(NC(=O)c3ccc(C(C)(C)C)cc3)cn2c1
%Inh [%]: 27

COMPOUND: CCn1c(-c2ccccc2)nc2cnccc21
%Inh [%]: 8

COMPOUND: CC(=O)c1cccc(NC(=O)NC2CCN(c3ccnc(Nc4ccc(F)cc4)n3)C2)c1 (stereo not drawn)
%Inh [%]: 0

COMPOUND: Fc1ccc(-c2nc[nH]c2-c2ccncc2)cc1
%Inh [%]: 16

COMPOUND: Cl.Cl.Cl.N#Cc1ccc(CCNc2nccc(-c3cccc(CN4CCNCC4)c3)n2)cc1
%Inh [%]: 0

COMPOUND: CS(=O)(=O)Cc1ccc(Nc2nccc(-c3c(-c4cccc(NC(=O)C5CCCCC5)c4)nn4ncccc34)n2)cc1
%Inh [%]: 17

COMPOUND: CC(C)c1cc(-c2ccc3c(N)n[nH]c3c2)nc(N)n1
%Inh [%]: 0

COMPOUND: Fc1ccc(-c2nc3n(c2-c2ccncc2)CCS3)cc1
%Inh [%]: 0
